Please respond with reported pIC50 for every item in the list.
Molecular target: Human immunodeficiency virus type 1 reverse transcriptase (Human immunodeficiency virus 1, UniProt Q72547, V106A)
Experiment: Inhibition of HIV-1 reverse transcriptase V106A mutant assessed as reduction in dTTP incorporation using poly(rA)/oligo(dT)16 as template/primer after 40 mins by PicoGreen dye based spectrofluorometric analysis
Keep in mind that pIC50 stands for -log10 of concentration in molar terms.

Prompt: Tell us which pIC50 value is on record for Cc1ccc(CCS(=O)(=O)n2c(=O)[nH]c3ccc(Cl)cc32)cc1
Completion: 4.02

Prompt: Give reported pIC50 value for O=c1[nH]c2ccc(Cl)cc2n1S(=O)(=O)CCc1ccc(Cl)cc1
Completion: 4.16

Prompt: Identify pIC50 associated with the compound O=c1[nH]c2ccc(Cl)cc2n1S(=O)(=O)CCc1ccccc1Cl
Completion: 3.86

Prompt: Return the recorded pIC50 value; entry: O=c1[nH]c2ccc(Cl)cc2n1S(=O)(=O)Cc1ccccc1
Completion: 5.03

Prompt: Identify measured pIC50 associated with Cc1ccc(CS(=O)(=O)n2c(=O)[nH]c3ccc(Cl)cc32)cc1
Completion: 5.18

Prompt: Identify the reported pIC50 for the following entry. Cc1cccc(CCS(=O)(=O)n2c(=O)[nH]c3ccc(Cl)cc32)c1
Completion: 4.13

Prompt: Given O=c1[nH]c2ccc(Cl)cc2n1S(=O)(=O)Cc1cccc(Cl)c1 , respond with its pIC50.
Completion: 5.18

Prompt: Look up and report measured pIC50 for this entry: O=c1[nH]c2ccc(Cl)cc2n1S(=O)(=O)Cc1ccc(Cl)cc1
Completion: 4.82

Prompt: Read the entry O=c1[nH]c2ccc(Cl)cc2n1S(=O)(=O)Cc1ccccc1Cl and write its reported pIC50.
Completion: 5.74

Prompt: Quickly give me recorded pIC50 for O=c1[nH]c2ccc(Cl)cc2n1S(=O)(=O)CCc1cccc(Cl)c1
Completion: 4.35

# credit: ChEMBL document CHEMBL4052651
